Test readout: melting point

Cc1ccc(-c2nn(-c3ccccc3)cc2C=C(C#N)C(=O)Nc2nccs2)cc1 : 255 to 257 °C

Identify the reported melting point for the following entry. N#CC(=Cc1cn(-c2ccccc2)nc1-c1cccnc1)C(=O)Nc1nccs1
250 to 252 °C

Identify the reported melting point for the following entry. N#CC(=Cc1cn(-c2ccccc2)nc1-c1ccc(Cl)cc1)C(=O)Nc1nccs1
270 to 272 °C

Identify the reported melting point for the following entry. N#CC(=Cc1cn(-c2ccccc2)nc1-c1cccs1)C(=O)Nc1nccs1
252 to 256 °C
